Listed next: entries and their corresponding % Axl tyrosine kinase inhibition at 1 μM concentration.
- target_or_system: recombinant Axl tyrosine kinase (Homo sapiens)
- Construct: encompassing amino acids 473 to 894 of Axl; GST (N); made in house; host or cells: SF126 insect cells
- assay_text: In vitro Axl kinase assay (AlphaScreen), Test (a)
- Format: biochemical
- stated_conditions: test compound at 1 μM; first value quoted
readout_type: % Axl tyrosine kinase inhibition at 1 μM concentration (%)

>  <compound>
CC(O)c1nn(C2CCN(C)CC2)cc1-c1cnc(N)c(-c2nc3c(C#N)cccc3o2)c1 (stereo not shown)

>  <readout_unit>
%

>  <observed_measurement>
99.7

$$$$
>  <compound>
Nc1ncc(-c2ccc(C(=O)N3CCC4(CCNC4)CC3)cc2)cc1-c1nc2cccnc2o1 [Example 45A.89]

>  <readout_unit>
%

>  <observed_measurement>
91.7

$$$$
>  <compound>
NCCOc1ccc(-c2cnc(N)c(-c3nc4ncccc4o3)c2)cc1 [Example 43B.25]

>  <readout_unit>
%

>  <observed_measurement>
97.5

$$$$
>  <compound>
Nc1ncc(-c2cnn(CCN3CCCC3)c2)cc1-c1nc2ccccc2o1

>  <readout_unit>
%

>  <observed_measurement>
96.4

$$$$

----------
- target_or_system: cMet expressed on MKN45 cells (Homo sapiens)
- Construct: endogenous in cells; host or cells: MKN45
- Sequence (P08581 25-1390): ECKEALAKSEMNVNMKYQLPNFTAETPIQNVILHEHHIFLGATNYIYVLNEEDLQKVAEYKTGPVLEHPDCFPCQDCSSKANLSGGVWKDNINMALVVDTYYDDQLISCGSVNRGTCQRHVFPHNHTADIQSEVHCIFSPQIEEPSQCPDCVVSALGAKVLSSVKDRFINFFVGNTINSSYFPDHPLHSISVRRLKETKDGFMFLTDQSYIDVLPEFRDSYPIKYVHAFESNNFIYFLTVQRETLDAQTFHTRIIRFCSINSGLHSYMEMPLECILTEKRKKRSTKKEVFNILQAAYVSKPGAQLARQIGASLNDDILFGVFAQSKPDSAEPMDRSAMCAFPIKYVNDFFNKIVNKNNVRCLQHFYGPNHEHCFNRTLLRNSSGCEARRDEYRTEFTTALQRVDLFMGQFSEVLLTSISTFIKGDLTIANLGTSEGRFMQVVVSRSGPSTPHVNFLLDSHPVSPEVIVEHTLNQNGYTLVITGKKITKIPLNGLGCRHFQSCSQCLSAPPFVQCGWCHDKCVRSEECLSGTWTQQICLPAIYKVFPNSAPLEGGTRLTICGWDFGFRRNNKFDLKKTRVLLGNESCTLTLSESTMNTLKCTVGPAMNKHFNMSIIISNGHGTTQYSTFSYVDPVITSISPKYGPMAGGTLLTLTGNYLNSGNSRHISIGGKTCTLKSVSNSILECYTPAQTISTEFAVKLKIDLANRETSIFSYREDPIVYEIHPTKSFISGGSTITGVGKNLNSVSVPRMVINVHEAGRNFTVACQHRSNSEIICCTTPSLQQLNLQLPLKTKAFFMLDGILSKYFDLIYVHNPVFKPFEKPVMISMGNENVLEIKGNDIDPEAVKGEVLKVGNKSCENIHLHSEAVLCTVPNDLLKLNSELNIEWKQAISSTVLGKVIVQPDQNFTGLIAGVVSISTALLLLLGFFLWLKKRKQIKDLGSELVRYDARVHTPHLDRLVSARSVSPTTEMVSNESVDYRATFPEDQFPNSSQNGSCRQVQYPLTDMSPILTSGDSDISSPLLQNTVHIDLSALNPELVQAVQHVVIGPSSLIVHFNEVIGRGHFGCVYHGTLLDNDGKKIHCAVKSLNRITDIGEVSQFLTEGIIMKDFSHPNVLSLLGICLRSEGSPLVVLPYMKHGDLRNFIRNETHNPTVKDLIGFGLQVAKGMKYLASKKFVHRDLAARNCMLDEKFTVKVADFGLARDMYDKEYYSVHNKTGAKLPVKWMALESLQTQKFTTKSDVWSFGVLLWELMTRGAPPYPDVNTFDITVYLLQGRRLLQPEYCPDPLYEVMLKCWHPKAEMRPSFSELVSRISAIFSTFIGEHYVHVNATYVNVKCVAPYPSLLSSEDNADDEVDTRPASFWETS
- assay_text: Cellular c-Met inhibition assay, Test (d)
- Assay type: cell-based
- stated_conditions: later recalculated, read-out: IC50 versus cellular phospho-c-Met (pYpYpY1230/4/5), mean recalculated from a larger number of replicates

>  <smiles_structure>
CN1CCC(n2cc(-c3cnc(N)c(-c4nc5ccc(F)cc5o4)c3)cn2)CC1

>  <readout_unit>
nM

>  <IC50>
950

$$$$

----------
- target_or_system: recombinant Axl tyrosine kinase (Homo sapiens, UniProt P30530)
- Construct: encompassing amino acids 473 to 894 of Axl; GST (N); made in house; host or cells: SF126 insect cells
- Sequence (P30530 473-894): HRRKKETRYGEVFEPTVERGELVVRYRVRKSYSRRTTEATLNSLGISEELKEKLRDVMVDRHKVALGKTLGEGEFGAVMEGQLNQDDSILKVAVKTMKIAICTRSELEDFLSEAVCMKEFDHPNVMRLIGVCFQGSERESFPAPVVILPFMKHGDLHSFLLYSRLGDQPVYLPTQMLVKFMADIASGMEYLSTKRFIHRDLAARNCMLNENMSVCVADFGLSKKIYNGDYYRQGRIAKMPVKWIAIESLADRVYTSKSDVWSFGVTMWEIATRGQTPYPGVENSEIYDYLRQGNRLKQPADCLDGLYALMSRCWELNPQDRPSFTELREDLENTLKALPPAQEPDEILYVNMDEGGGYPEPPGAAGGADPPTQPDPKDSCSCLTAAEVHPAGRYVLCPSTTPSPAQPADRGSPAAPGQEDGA
- assay_text: In vitro Axl kinase assay (AlphaScreen), Test (a)
- Format: biochemical
- stated_conditions: test compound at 1 μM; first value quoted
- Experimental: Test compounds were prepared as 10 mM stock solutions in dimethylsulphoxide (DMSO) and diluted in DMSO as required. Aliquots (120 nl) of compound dilutions were filled into the wells of a Greiner 384-well low volume (LV) white polystyrene plate (Greiner Bio-one) using acoustic dispensing (Labcyte Echo 550). […]
Listed next: entries and their corresponding % Axl tyrosine kinase inhibition at 1 μM concentration.
readout_type: % Axl tyrosine kinase inhibition at 1 μM concentration (%)

>  <molecule>
COc1nn(C2CCNCC2)cc1-c1cnc(N)c(-c2nc3ccccc3o2)c1

>  <target_or_system>
recombinant Axl tyrosine kinase (Homo sapiens, UniProt P30530)

>  <observed_measurement>
100.0

$$$$
>  <molecule>
COCc1nn(C2CCN(C(=O)[C@H](C)O)CC2)cc1-c1cnc(N)c(-c2nc3ccccc3o2)c1

>  <target_or_system>
recombinant Axl tyrosine kinase (Homo sapiens, UniProt P30530)

>  <observed_measurement>
100.0

$$$$
>  <molecule>
Nc1ncc(-c2cnn(CCCN3CCC[C@@H]3CO)c2)cc1-c1nc2ccccc2o1

>  <target_or_system>
recombinant Axl tyrosine kinase (Homo sapiens, UniProt P30530)

>  <observed_measurement>
99.9

$$$$
>  <molecule>
Nc1ncc(-c2cnn(C3CCNCC3)c2)cc1-c1nc2cccc(F)c2o1

>  <target_or_system>
recombinant Axl tyrosine kinase (Homo sapiens, UniProt P30530)

>  <observed_measurement>
100.0

$$$$
>  <molecule>
Nc1ncc(-c2ccc3c(c2)OCCO3)cc1-c1nc2ccccc2o1

>  <target_or_system>
recombinant Axl tyrosine kinase (Homo sapiens, UniProt P30530)

>  <observed_measurement>
45.4

$$$$
>  <molecule>
Nc1ncc(-c2ccc(OCCOC3CNC3)cc2)cc1-c1nc2ncccc2o1 [Example 43B.39]

>  <target_or_system>
recombinant Axl tyrosine kinase (Homo sapiens, UniProt P30530)

>  <observed_measurement>
98.2

$$$$
>  <molecule>
CN(C)c1nn(C2CCNCC2)cc1-c1cnc(N)c(-c2nc3ccccc3o2)c1

>  <target_or_system>
recombinant Axl tyrosine kinase (Homo sapiens, UniProt P30530)

>  <observed_measurement>
99.9

$$$$
>  <molecule>
Nc1ncc(-c2cccc(N3CCOCC3)c2)cc1-c1nc2cnccc2o1

>  <target_or_system>
recombinant Axl tyrosine kinase (Homo sapiens, UniProt P30530)

>  <observed_measurement>
89.8

$$$$
>  <molecule>
Nc1ncc(-c2ccc(C(=O)NCCCN3CCCC3)cc2)cc1-c1nc2cccnc2o1 [Example 45A.6]

>  <target_or_system>
recombinant Axl tyrosine kinase (Homo sapiens, UniProt P30530)

>  <observed_measurement>
97.4

$$$$
>  <molecule>
Nc1ncc(-c2cccc(C(=O)NCCN3CCOCC3)c2)cc1-c1nc2cccnc2o1

>  <target_or_system>
recombinant Axl tyrosine kinase (Homo sapiens, UniProt P30530)

>  <observed_measurement>
81.9

$$$$
>  <molecule>
COCCC(=O)N1CCC(n2cc(-c3cnc(N)c(-c4nc5ncccc5o4)c3)cn2)CC1

>  <target_or_system>
recombinant Axl tyrosine kinase (Homo sapiens, UniProt P30530)

>  <observed_measurement>
99.3

$$$$
>  <molecule>
Nc1ncc(-c2ccc(OCCCN3CCOCC3)cc2)cc1-c1nc2ncccc2o1 [Example 43B.19]

>  <target_or_system>
recombinant Axl tyrosine kinase (Homo sapiens, UniProt P30530)

>  <observed_measurement>
95.8

$$$$
>  <molecule>
CN1CCN(c2ccc(-c3cnc(N)c(-c4nc5ccccc5o4)c3)cn2)CC1

>  <target_or_system>
recombinant Axl tyrosine kinase (Homo sapiens, UniProt P30530)

>  <observed_measurement>
99.8

$$$$
>  <molecule>
CC(=O)N1CCC(n2cc(-c3cnc(N)c(-c4nc5ccccc5o4)c3)cn2)CC1

>  <target_or_system>
recombinant Axl tyrosine kinase (Homo sapiens, UniProt P30530)

>  <observed_measurement>
99.8

$$$$
>  <molecule>
CN1CCCC(Oc2ccc(-c3cnc(N)c(-c4nc5ncccc5o4)c3)cc2)C1 (centres unmarked) [Example 43B.9]

>  <target_or_system>
recombinant Axl tyrosine kinase (Homo sapiens, UniProt P30530)

>  <observed_measurement>
98.2

$$$$
>  <molecule>
Nc1ncc(-c2cccc(C(=O)NCCN3CCOCC3)c2)cc1-c1nc2ncccc2o1 [Example 10A.2]

>  <target_or_system>
recombinant Axl tyrosine kinase (Homo sapiens, UniProt P30530)

>  <observed_measurement>
63.9

$$$$
>  <molecule>
CN(C)C(=O)CN1CCC(n2cc(-c3cnc(N)c(-c4nc5ncccc5o4)c3)cn2)CC1

>  <target_or_system>
recombinant Axl tyrosine kinase (Homo sapiens, UniProt P30530)

>  <observed_measurement>
99.7

$$$$

----------
Listed next: entries and their corresponding % Axl tyrosine kinase inhibition at 1 μM concentration.
- target_or_system: recombinant Axl tyrosine kinase (Homo sapiens)
- Construct: encompassing amino acids 473 to 894 of Axl; GST (N); made in house; host or cells: SF126 insect cells
- assay_text: In vitro Axl kinase assay (AlphaScreen), Test (a)
- Assay type: biochemical
- stated_conditions: test compound at 1 μM; first value quoted
readout_type: % Axl tyrosine kinase inhibition at 1 μM concentration (%)

>  <compound>
NC(=O)c1cccc(-c2cnc(N)c(-c3nc4ccccc4o3)c2)c1 [Example 2.34]

>  <observed_measurement>
67.3

$$$$
>  <compound>
Nc1ncc(-c2ccc(C(=O)N[C@H]3CN4CCC3CC4)cc2)cc1-c1nc2cccnc2o1 [Example 45A.35]

>  <observed_measurement>
98.4

$$$$
>  <compound>
Nc1ncc(-c2cnn(C3CCN(C(=O)CO)CC3)c2)cc1-c1nc2cccnc2o1 [Example 57.6]

>  <observed_measurement>
99.8

$$$$
>  <compound>
CN(C)C1CCCN(C(=O)c2ccc(-c3cnc(N)c(-c4nc5cccnc5o4)c3)cc2)C1 (centres unmarked) [Example 45A.20]

>  <observed_measurement>
98.9

$$$$
>  <compound>
Nc1ncc(-c2ccc(OCCN3CCCC3)cc2)cc1-c1nc2ncccc2o1 [Example 43B.1]

>  <observed_measurement>
99.8

$$$$
>  <compound>
CNC1CCN(C(=O)c2ccc(-c3cnc(N)c(-c4nc5cccnc5o4)c3)cc2)C1 (centres unmarked) [Example 45A.80]

>  <observed_measurement>
99.7

$$$$
>  <compound>
COc1cccc2nc(-c3cc(-c4cnn(C5CCN(C)CC5)c4)cnc3N)oc12 [Example 41.27]

>  <observed_measurement>
100.0

$$$$
>  <compound>
N#CCC1(n2cc(-c3cnc(N)c(-c4nc5ccccc5o4)c3)cn2)CCNCC1 [Example 25.1]

>  <observed_measurement>
95.0

$$$$

----------
- target_or_system: recombinant Axl tyrosine kinase (Homo sapiens)
- Construct: encompassing amino acids 473 to 894 of Axl; GST (N); made in house; host or cells: SF126 insect cells
- assay_text: In vitro Axl kinase assay (AlphaScreen), Test (a)
- Type: biochemical
- stated_conditions: test compound at 1 μM; first value quoted
Listed next: entries and their corresponding % Axl tyrosine kinase inhibition at 1 μM concentration.
readout_type: % Axl tyrosine kinase inhibition at 1 μM concentration

>  <compound>
CNC1CCC(NC(=O)c2ccc(-c3cnc(N)c(-c4nc5cccnc5o4)c3)cc2)CC1 (centres unmarked) [Example 45A.99]

>  <observed_measurement>
95.9%

$$$$
>  <compound>
N#CCc1ccc(-c2cnc(N)c(-c3nc4ccccc4o3)c2)cc1

>  <observed_measurement>
93.1%

$$$$
>  <compound>
Nc1ncc(-c2ccc(C(=O)NCC3CCCCN3)cc2)cc1-c1nc2cccnc2o1 (centres unmarked) [Example 45A.104]

>  <observed_measurement>
99.8%

$$$$
>  <compound>
Nc1ncc(-c2cnn(C3CCN(C(=O)CO)CC3)c2)cc1-c1nc2ncccc2o1

>  <observed_measurement>
99.4%

$$$$
>  <compound>
Nc1ncc(-c2cccc(S(=O)(=O)NC3CC3)c2)cc1-c1nc2ncccc2o1 [Example 10A.10]

>  <observed_measurement>
90.0%

$$$$
>  <compound>
CC(C)N1CCC(n2cc(-c3cnc(N)c(-c4nc5ncccc5o4)c3)cn2)CC1

>  <observed_measurement>
99.2%

$$$$
>  <compound>
Nc1ncc(-c2ccc(C(=O)N3CCN(Cc4cccnc4)CC3)cc2)cc1-c1nc2cccnc2o1 [Example 45A.61]

>  <observed_measurement>
95.1%

$$$$
>  <compound>
COc1cc(-c2cnc(N)c(-c3nc4ncccc4o3)c2)ccc1OC[C@@H]1CCCN1C [Example 43C.6]

>  <observed_measurement>
99.8%

$$$$
